- Test system: OVCAR-8 ovarian
- assay_info: NCI-60 one-dose screen, 48 h
- test_settings: 10 µM unless noted
- Description: Growth inhibition of the OVCAR-8 human tumor cell line is measured as a screen for anti-cancer activity. Cells are grown in 96 well plates and exposed to the test compound for 48 hours. Compounds are tested at a single concentration, which is 10^-5 M for most compounds. The reported endpoint is percent growth (GI% or GIPRCNT), where numbers from 0 - 100% represent growth inhibition, and numbers from -100% - 0 represent cell death. For example, a value of 40 represents 60% growth inhibition. […]
About 83,000 compounds went through this panel and 20% of them were active in at least one assay; those are over-represented in the sample as a whole. The source made the active and inactive calls. The calls were made as follows: active = growth percent below 10; inactive = the rest.
Labels: active, inactive

                                   compound  qualitative_label
0  COc1cc(-c2nn(-c3ccc(NC(=O)Nc4ccc(Cl)c(Cl)c4)cc3)cc2-c2ccncc2)ccc1Cl           inactive
1  NCCCOc1cc2ccccc2cc1C(=O)Nc1ccc(Cl)cc1OC(=O)c1cc2ccccc2cc1OCCCN             active
2    CC1CCCCC[N+]12CCCC2 (stereo not given)           inactive
3  COc1ccc(CN2C(=O)/C(=C\C(=O)c3ccc(OCCN4CCCCC4)cc3)c3ccccc32)cc1           inactive
4         CCOC(=O)CNS(=O)(=O)CC(=O)c1ccccc1           inactive

====

- System: HCC-2998 colon
- assay_info: NCI-60 one-dose screen, 48 h (100 = growth as untreated, 0 = no growth, -100 = all killed)
- test_settings: 10 µM unless noted
About 83,000 compounds went through this panel and 20% of them were active in at least one assay; those are over-represented in the sample as a whole.
quantity: growth (%)

>>> print(df.to_string())
                                    compound  measurement_target  readout_value
 0  [2H]c1nc(=Nc2cc(NC(=O)C=C)c(N(C)CCN(C)C)cc2OC)[nH]c(-c2cn(C([2H])([2H])[2H])c3ccccc23)c1[2H]      HCC-2998 colon             51
 1                O=C(Nn1cnc2ccccc21)N1CCCC1      HCC-2998 colon           83.7
 2  C[C@]12CC[C@H]3[C@@H](CC[C@H]4C[C@@H](O)CC[C@@]43C)[C@@H]1CC(=O)C2      HCC-2998 colon            101
 3  CCCC(=O)NNc1[nH]c(-c2ccc(OC)cc2)cc1C(=O)OCC      HCC-2998 colon           75.2
 4       O=C(O)/C(Br)=C/c1c[nH]c2ccc(Br)cc12      HCC-2998 colon           94.2
 5  O=C1C(=O)c2ccccc2C(O)=C1CCCc1ccc(Oc2ccccc2)cc1      HCC-2998 colon            103
 6  Cc1ccc(C(=O)Nc2ccc(CN3CCN(C)CC3)c(C(F)(F)F)c2)cc1C#Cc1cnc(N)c2ccc(F)cc12      HCC-2998 colon          -78.5
 7  COC(=O)c1ccc2[nH]c(O)c(C(=Nc3ccc(N(C)C(=O)CN4CCN(C)CC4)cc3)c3ccc(OC)cc3)c2c1      HCC-2998 colon           30.8
 8  CC(=O)OC1CC2C3CCC4C[C@@H](NC(=O)C=C(C)C)CC[C@]4(C)C3CC[C@]2(C)[C@H]1C(C)N(C)C (stereo not given in full)      HCC-2998 colon          -51.9
 9           O=C(CBr)OCc1ccc([N+](=O)[O-])o1      HCC-2998 colon           95.2
10  CCCCCCCCC/C(=N\NC(=O)c1ccncc1)c1ccc(O)c(O)c1O      HCC-2998 colon           33.3
11        C=CCNC(=S)NNc1ccc([N+](=O)[O-])cn1      HCC-2998 colon           96.3
12   COc1ccc2c(c1)cn1c3ccc(O)cc3[nH]c(=O)c21      HCC-2998 colon           11.8
13                     CCCCCCCCCC[N+](C)(C)N      HCC-2998 colon           98.5
14  Nc1cc(N)c2nc(-c3ccccc3)c(NCCc3ccc(Cl)c(Cl)c3)nc2c1      HCC-2998 colon          -94.9
